# Test system: SN-12C (renal cancer)
# PROTOCOL_TEXT: Human Disease Oriented in vitro Antitumor Screen
# Assay type: cell-based
# CONDITION_PARAMETERS: SN12C, SN-12C (Table 5), read-out: Gl50 (the source's name)
ASSAY_METRIC: IC50

Bench note: what IC50 did C=C(C[C@H](NC(=O)c1ccc(CCc2cnc3nc(N)nc(N)c3n2)cc1)C(=O)O)C(=O)O [L-MDAM] show?
< 10 nM

---

# Test system: SR (leukemia)
# PROTOCOL_TEXT: Human Disease Oriented in vitro Antitumor Screen
# Type: cell-based
# CONDITION_PARAMETERS: SR (Table 5), read-out: Gl50 (the source's name)
pIC50: −log10 of the molar value.
ASSAY_METRIC: pIC50

Bench note: what pIC50 did "C=C(C[C@H](NC(=O)c1ccc(CCc2cnc3nc(N)nc(N)c3n2)cc1)C(=O)O)C(=O)O" show?
> 8.00

---

# Test system: HOP-62 (non-small cell lung cancer)
# PROTOCOL_TEXT: Human Disease Oriented in vitro Antitumor Screen
# Format: cell-based
# CONDITION_PARAMETERS: HOP-62 (Table 5), read-out: Gl50 (the source's name)
pIC50: −log10 of the molar value.
ASSAY_METRIC: pIC50

Bench note: what pIC50 did C=C(C[C@H](NC(=O)c1ccc(CCc2cnc3nc(N)nc(N)c3n2)cc1)C(=O)O)C(=O)O [L-MDAM] show?
> 8.00

---

# Test system: HCT-116 (colon cancer)
# PROTOCOL_TEXT: Human Disease Oriented in vitro Antitumor Screen
# Assay type: cell-based
# CONDITION_PARAMETERS: HCT-116 (Table 5), read-out: Gl50 (the source's name)
ASSAY_METRIC: IC50

Bench note: what IC50 did C=C(C[C@H](NC(=O)c1ccc(CCc2cnc3nc(N)nc(N)c3n2)cc1)C(=O)O)C(=O)O [L-MDAM] show?
< 10 nM

---

# PROTOCOL_TEXT: Antitumor activity by continuous i.v. infusion (C.I.) × 5d against human HCT-8 ileocecal xenograft
# Assay type: in vivo, human (xenograft in nude mice)
# CONDITION_PARAMETERS: mouse, in vivo, iv; 0.25 mg/kg, C.I. × 5d; read-out: death
ASSAY_METRIC: mortality (%)
Please respond with the number in % and leave the unit unwritten.

Bench note: what mortality did CN(Cc1cnc2nc(N)nc(N)c2n1)c1ccc(C(=O)N[C@@H](CCC(=O)O)C(=O)O)cc1 [MTX, methotrexate, reference compound] show?
100
